Target: T1, human common cytokine receptor γ-chain (IL-2Rγ) (human, UniProt P31785 23-262, limits assumed)
T1 construct: Recombinant human IL-2Rγ protein, coated (ELISA) or amine-coupled to a CM5 chip (SPR); also called hu IL-2R; CD132
T1 sequence: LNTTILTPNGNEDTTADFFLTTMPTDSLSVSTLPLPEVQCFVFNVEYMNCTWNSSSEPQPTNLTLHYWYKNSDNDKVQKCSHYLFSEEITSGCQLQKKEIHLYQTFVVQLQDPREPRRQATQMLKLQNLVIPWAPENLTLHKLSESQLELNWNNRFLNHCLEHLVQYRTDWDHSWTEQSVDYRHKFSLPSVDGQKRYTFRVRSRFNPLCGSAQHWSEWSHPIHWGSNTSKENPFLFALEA
Test: P.E. binding ELISA
Readout label: PE binding ELISA OD (OD450 nm)
Report only the number, with the unit OD450 nm understood.

Example binders with recorded PE binding ELISA OD:
[[record]]
binder = "FJ1427_P035MP07G08 (VHH, tested as periplasmic extract; also called Clone nr) VHH: QVQLVESGGGLVQAGGSLRLSCAASGRTLSRYAMGWFRQAPGREREFVTANSWGGDTYYADSVQGRFTFSRDNAKNTVYLQMSSLQPEDTAVYYCAAAPTSFATTAYSSSNSYAYWGQGTQVTVSS"
number = 0.504

[[record]]
binder = "FJ1427_P035MP07F10 (VHH, tested as periplasmic extract; also called Clone nr; 654) VHH: QVQLQESGGGLVQAGGSLRLSCAASGRTLSRYAMGWFRQAPGKEREFVACDSWGGDTFYADSVEGRFTFSRDNAKNATYLQMNSLQPEDTAVYYCAGAPTSFATTAYSSSNSYTVWGQGTQVTVSL"
number = 0.67

[[record]]
binder = "FJ1427_P035MP07H04 (VHH, tested as periplasmic extract; also called Clone nr) VHH: QVQLVESGGGLVQAGGSLRLSCAASGRTLSRYAMGWFRQAPGKEREFVAAMSWGGDTFYADSVEGRFTFSRDNAEIAVYLQMNSLQPEDTAVYYCAAAPTSFATTAYSSSNSYAYWGQGTQVTVSH"
number = 0.593


Proceeding to the next binder to report its PE binding ELISA OD.
I am curious: what PE binding ELISA OD value has been reported for FJ1427_P035MP07D03 (VHH, tested as periplasmic extract; also called Clone nr) VHH: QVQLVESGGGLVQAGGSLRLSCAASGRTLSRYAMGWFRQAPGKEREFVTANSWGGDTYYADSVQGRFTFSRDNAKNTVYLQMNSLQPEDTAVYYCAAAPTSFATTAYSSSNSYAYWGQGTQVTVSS ? 1.25
